# credit: patent US20110144577A1

ASSAY EXPLANATION: Solubility enhancement of zotarolimus with select excipients in PBS
Type: physicochemical
EXPERIMENTAL CONTEXT: PBS with 5% w/w PEG-PE, aqueous with cosolvent or surfactant or cyclodextrin; PEG-PE 5% w/w in PBS, n = 3
Description: Table 1 provides non-limiting examples of the solubility enhancement provided by excipients that can be used in accordance with the disclosed subject matter: […]
ENDPOINT: solubility (µg/mL)
State just the number; it will be interpreted in µg/mL.

Quick note, solubility for CO[C@H]1C[C@@H]2CC[C@@H](C)[C@@](O)(O2)C(=O)C(=O)N2CCCC[C@H]2C(=O)O[C@H]([C@H](C)C[C@@H]2CC[C@H](n3cnnn3)[C@H](OC)C2)CC(=O)[C@H](C)/C=C(\C)[C@@H](O)[C@@H](OC)C(=O)[C@H](C)C[C@H](C)/C=C/C=C/C=C/1C [Zotarolimus, zotarolimus] landed at 1020
